meta.source: the PETadex activity labels (doi:10.1021/acscatal.9b00568)

Substrate: PET
protocol-text: Proxy for plastic degradation [HPLC-UV]
experimental-conditions: pH 9; 30 °C; 72 h
property-name: Proxy for plastic degradation (µM)
Answer in µM, number only, no unit symbol.

[[record]]
protein = "unnamed (protein) MNFPRASRLMQAAVLGGLMAVSAAATAQTNPYARGPNPTAASLEASAGPFTVRSFTVSRPSGYGAGTVYYPTNAGGTVGAIAIVPGYTARQSSIKWWGPRLASHGFVVITIDTNSTLDQPSSRSSQQMAALRQVASLNGTSSSPIYGKVDTARMGVMGWSMGGGGSLISAANNPSLKAAAPQAPWISSTNFSSVTVPTLIFACENDSIAPVNSSALPIYDSMSRNAKQFLEINGGSHSCANSGNSNQALIGKKGVAWMKRFMDNDTRYSTFACENPNSTRVSDFRTANCS"
unit_text = "µM"
experimental_value = 2.4


Now for a further protein.
Which Proxy for plastic degradation is reported for this protein? unnamed (protein) MNFPRASRLMQAAVLGGLMAVSAAATAQTNPYARGPNPTAASLEASAGPFTVRSFTVSRPSGYGAGTVYYPTNAGGTVGAIAIVPGYTARQSSIKWWGPRLASHGFVVITIDTNSTLDQPESRSSQQMAALRQVASLNGTSSSPIYGKVDTARMGVMGWSMGGGGSLISAANNPSLKAAAPQAPWDSSTNFSSVTVPTLIFACENDSIAPVNSSALPIYDSMSRNAKQFLEINGGSHSCANSGNSNQALIGKKGVAWMKRFMDNDTRYSTFACENPNSTRVSDFRTANCS
19
